- experimental-target: lysyl-tRNA synthetase 1 (LdLysRS-1) (Leishmania donovani, UniProt A0A3Q8IA00)
- Construct: gene LdCL_150007600; full-length LdLysRS-1 (586 aa), N-terminal His6 tag
- Sequence (A0A3Q8IA00 entry or part of it): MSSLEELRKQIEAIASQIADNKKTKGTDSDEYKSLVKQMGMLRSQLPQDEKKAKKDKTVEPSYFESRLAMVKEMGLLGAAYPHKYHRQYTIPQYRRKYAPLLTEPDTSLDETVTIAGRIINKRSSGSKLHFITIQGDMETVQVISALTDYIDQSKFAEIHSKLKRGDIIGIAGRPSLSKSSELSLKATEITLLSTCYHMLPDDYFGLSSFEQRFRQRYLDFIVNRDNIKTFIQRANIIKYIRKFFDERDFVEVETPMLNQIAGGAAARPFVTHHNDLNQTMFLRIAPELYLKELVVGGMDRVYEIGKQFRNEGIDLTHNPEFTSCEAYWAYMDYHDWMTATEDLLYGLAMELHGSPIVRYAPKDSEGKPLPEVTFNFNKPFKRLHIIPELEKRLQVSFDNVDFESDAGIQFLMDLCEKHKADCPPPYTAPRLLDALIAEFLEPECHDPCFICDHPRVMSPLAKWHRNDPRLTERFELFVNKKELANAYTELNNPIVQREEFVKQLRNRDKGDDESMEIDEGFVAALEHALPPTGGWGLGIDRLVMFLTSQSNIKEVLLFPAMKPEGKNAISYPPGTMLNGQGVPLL
- experiment-description: malachite green aminoacylation assay with recombinant enzyme; thermal shift of ~[…]°C
- Format: biochemical
pIC50: −log10 of the molar value.
experimental-readout: pIC50

Considering C[C@H]1CCC[C@H](C[C@H]2Cc3cc(O)cc(O)c3C(=O)O2)O1 , its pIC50 with lysyl-tRNA synthetase 1 (LdLysRS-1) (Leishmania donovani, UniProt A0A3Q8IA00) was recorded as ~5.39

----------
- experimental-target: lysyl-tRNA synthetase 1 (LdLysRS-1) (Leishmania donovani, UniProt A0A3Q8IA00)
- Construct: gene LdCL_150007600; full-length LdLysRS-1 (586 aa), N-terminal His6 tag
- experiment-description: malachite green aminoacylation assay with recombinant enzyme; thermal shift of ~[…]°C
- Type: biochemical
pIC50: −log10 of the molar value.
experimental-readout: pIC50

Summary for this molecule, C[C@@H]1CCC[C@H](C[C@@H]2Cc3cc(O)cc(O)c3C(=O)O2)O1 [3-epi-isocladosporin] : pIC50 is ~4.59
